The values you see were collected from patent US10865208B2.

The entries below come with measured IC50 values attached.
- target_under_test: recombinant human His-ATG7 enzyme (Homo sapiens (Human), UniProt O95352)
- Sequence (O95352 whole entry): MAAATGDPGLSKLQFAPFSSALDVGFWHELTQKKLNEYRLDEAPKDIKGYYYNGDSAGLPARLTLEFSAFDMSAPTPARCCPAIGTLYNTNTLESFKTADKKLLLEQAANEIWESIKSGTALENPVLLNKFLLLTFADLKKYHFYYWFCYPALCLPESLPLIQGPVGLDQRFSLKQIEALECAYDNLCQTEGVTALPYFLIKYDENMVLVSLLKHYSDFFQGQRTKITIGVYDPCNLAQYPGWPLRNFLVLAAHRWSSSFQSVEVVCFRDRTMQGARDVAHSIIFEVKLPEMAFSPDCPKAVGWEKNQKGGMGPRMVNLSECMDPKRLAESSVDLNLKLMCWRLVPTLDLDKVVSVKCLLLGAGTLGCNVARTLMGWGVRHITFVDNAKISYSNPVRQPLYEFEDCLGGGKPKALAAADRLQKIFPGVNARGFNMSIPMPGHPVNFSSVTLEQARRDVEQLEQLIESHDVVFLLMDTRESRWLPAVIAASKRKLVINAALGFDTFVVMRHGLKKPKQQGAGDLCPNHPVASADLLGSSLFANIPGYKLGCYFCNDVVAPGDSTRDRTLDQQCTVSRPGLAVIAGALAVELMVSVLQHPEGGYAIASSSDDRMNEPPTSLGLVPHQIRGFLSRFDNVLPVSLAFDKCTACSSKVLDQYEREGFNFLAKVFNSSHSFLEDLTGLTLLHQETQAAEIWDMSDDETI
- assay_procedure: ATG7 Enzyme Assay (HTRF/FRET, ATG3-GST and Flag-Gabarap)

# compound, IC50
measured = [
    ("Cc1ccnc(Sc2nn([C@@H]3O[C@H](COS(N)(=O)=O)[C@@H](O)[C@@H]3F)c3ncnc(N)c23)c1", "< 20 nM"),
    ("Nc1ncnc2c1c(OCCCl)nn2[C@@H]1O[C@H](COS(N)(=O)=O)[C@@H](O)[C@H]1O", "100 to 500 nM"),
    ("Cc1ccc(Sc2nn([C@@H]3O[C@H](COS(N)(=O)=O)[C@@H](O)[C@@H]3F)c3ncnc(N)c23)nc1", "< 20 nM"),
    ("Cc1nn([C@H]2C[C@H](O)[C@H](COS(N)(=O)=O)O2)c2ncnc(N)c12", "> 500 nM"),
    ("Nc1ncnc2c1c(-c1ccn[nH]1)nn2[C@@H]1O[C@H](COS(N)(=O)=O)[C@@H](O)[C@H]1O", "> 500 nM"),
    ("Nc1ncnc2c1c(C(F)(F)F)nn2[C@H]1C[C@H](O)[C@H](COS(N)(=O)=O)O1", "100 to 500 nM"),
]

INPUT: Write down IC50 measured for item Nc1ncnc2c1c(Sc1ccc(Cl)cn1)nn2[C@@H]1O[C@H](COS(N)(=O)=O)[C@@H](O)[C@@H]1F
OUTPUT: 20 to 50 nM

INPUT: Write down IC50 measured for item Cn1cnc(Sc2nn([C@@H]3O[C@H](COS(N)(=O)=O)[C@@H](O)[C@@H]3F)c3ncnc(N)c23)c1
OUTPUT: 20 to 50 nM

INPUT: Write down IC50 measured for item Nc1ncnc2c1c(Sc1nccs1)nn2[C@H]1C[C@H](O)[C@@H](COS(N)(=O)=O)O1
OUTPUT: 20 to 50 nM

INPUT: Write down IC50 measured for item Cc1ccccc1Sc1nn([C@@H]2O[C@H](COS(N)(=O)=O)[C@@H](O)[C@H]2O)c2ncnc(N)c12
OUTPUT: 50 to 100 nM

INPUT: Write down IC50 measured for item COc1cccc(Sc2nn([C@H]3C[C@H](O)[C@@H](COS(N)(=O)=O)O3)c3ncnc(N)c23)c1
OUTPUT: 20 to 50 nM

INPUT: Write down IC50 measured for item Nc1ncnc2c1c(SC1CC1)nn2[C@@H]1O[C@H](COS(N)(=O)=O)[C@@H](O)[C@H]1O
OUTPUT: < 20 nM

INPUT: Write down IC50 measured for item Nc1ncnc2c1c(Sc1ccccn1)nn2[C@@H]1O[C@H](COS(N)(=O)=O)[C@@H](O)[C@@H]1F
OUTPUT: < 20 nM

INPUT: Write down IC50 measured for item Nc1ncnc2c1c(Sc1cccc(F)c1)nn2[C@H]1C[C@H](O)[C@@H](COS(N)(=O)=O)O1
OUTPUT: 100 to 500 nM

INPUT: Write down IC50 measured for item CSc1nn([C@@H]2O[C@@H](COS(N)(=O)=O)[C@@H](O)[C@H]2O)c2ncnc(N)c12
OUTPUT: 100 to 500 nM

INPUT: Write down IC50 measured for item Nc1ncnc2c1c(SC(F)F)nn2[C@@H]1O[C@H](COS(N)(=O)=O)[C@@H](O)[C@H]1O
OUTPUT: 20 to 50 nM

INPUT: Write down IC50 measured for item CC(C)Oc1nn([C@@H]2O[C@H](COS(N)(=O)=O)[C@@H](O)[C@H]2O)c2ncnc(N)c12
OUTPUT: > 500 nM

INPUT: Write down IC50 measured for item CC1CC1CSc1nn([C@@H]2O[C@H](COS(N)(=O)=O)[C@@H](O)[C@@H]2F)c2ncnc(N)c12 (stereo partly drawn)
OUTPUT: 20 to 50 nM

###

- target_under_test: recombinant human His-ATG7 enzyme (Homo sapiens (Human), UniProt O95352)
- assay_procedure: ATG7 Enzyme Assay (HTRF/FRET, ATG3-GST and Flag-Gabarap)
- Type: biochemical
- stated_conditions: Concentration 0.111 μM; read-out: Percent Inhibition
endpoint_label: inhibition at 0.111 µM (%)
Give the quantity in %, number only.

Here's what some known entries look like.
# substance_smiles, inhibition at 0.111 µM / %
data = [
    ("Nc1ncnc2c1c(Sc1ccc(Cl)cn1)nn2[C@H]1C[C@H](O)[C@@H](COS(N)(=O)=O)O1", 60),
    ("Nc1ncnc2c1c(Sc1cc3c(cc1F)CCC3)nn2[C@H]1C[C@H](O)[C@@H](COS(N)(=O)=O)O1", 58),
    ("Nc1ncnc2c1c(SC(F)F)nn2[C@H]1C[C@H](O)[C@@H](COS(N)(=O)=O)O1", 57),
]

INPUT: Write down inhibition at 0.111 µM measured for item Nc1ncnc2c1c(SCC(F)F)nn2[C@H]1C[C@H](O)[C@@H](COS(N)(=O)=O)O1
OUTPUT: 62

INPUT: Write down inhibition at 0.111 µM measured for item Nc1ncnc2c1c(Sc1nnc3ccccn13)nn2[C@@H]1O[C@H](COS(N)(=O)=O)[C@@H](O)[C@@H]1F
OUTPUT: 30

INPUT: Write down inhibition at 0.111 µM measured for item Cn1cnc(Sc2nn([C@@H]3O[C@H](COS(N)(=O)=O)[C@@H](O)[C@@H]3F)c3ncnc(N)c23)c1
OUTPUT: 80

INPUT: Write down inhibition at 0.111 µM measured for item Cn1ccnc1Sc1nn([C@@H]2O[C@H](COS(N)(=O)=O)[C@@H](O)[C@@H]2F)c2ncnc(N)c12
OUTPUT: 37

###

- target_under_test: recombinant human His-ATG7 enzyme (Homo sapiens (Human), UniProt O95352)
- assay_procedure: ATG7 Enzyme Assay (HTRF/FRET, ATG3-GST and Flag-Gabarap)
The entries below come with measured IC50 values attached.

# molecule, IC50
data = [
    ("CC(C)Sc1nn([C@@H]2O[C@@H](COS(N)(=O)=O)[C@@H](O)[C@H]2O)c2ncnc(N)c12 [Compound I-95]", "100 to 500 nM"),
    ("Nc1ncnc2c1c(Sc1ccccc1F)nn2[C@H]1C[C@H](O)[C@H](COS(N)(=O)=O)O1 [Compound I-215]", "100 to 500 nM"),
    ("Cc1ccc(F)c(Sc2nn([C@H]3C[C@H](O)[C@@H](COS(N)(=O)=O)O3)c3ncnc(N)c23)c1 [Compound I-191]", "50 to 100 nM"),
    ("CC(O)c1nn([C@@H]2O[C@H](COS(N)(=O)=O)[C@@H](O)[C@H]2O)c2ncnc(N)c12 (single isomer, unassigned) [Compound I-23b]", "100 to 500 nM"),
    ("N#Cc1ccnc(Sc2nn([C@@H]3O[C@H](COS(N)(=O)=O)[C@@H](O)[C@@H]3F)c3ncnc(N)c23)c1 [Compound I-130]", "20 to 50 nM"),
]

INPUT: Write down IC50 measured for item Nc1ncnc2c1c(SCC(F)(F)F)nn2[C@@H]1O[C@H](COS(N)(=O)=O)[C@@H](O)[C@H]1O [Compound I-83]
OUTPUT: 20 to 50 nM

INPUT: Write down IC50 measured for item C[S+]([O-])c1nn([C@@H]2O[C@H](COS(N)(=O)=O)[C@@H](O)[C@H]2O)c2ncnc(N)c12 (stereo partly shown) [Compound I-87]
OUTPUT: 50 to 100 nM

INPUT: Write down IC50 measured for item NCC#Cc1nn([C@@H]2O[C@H](COS(N)(=O)=O)[C@@H](O)[C@H]2O)c2ncnc(N)c12 [Compound I-17]
OUTPUT: > 500 nM

INPUT: Write down IC50 measured for item Nc1ncnc2c1c(Sc1cc3c(cc1F)CCC3)nn2[C@H]1C[C@H](O)[C@@H](COS(N)(=O)=O)O1 [Compound I-203]
OUTPUT: 50 to 100 nM

INPUT: Write down IC50 measured for item Cc1ccccc1CSc1nn([C@@H]2O[C@H](COS(N)(=O)=O)[C@@H](O)[C@H]2O)c2ncnc(N)c12 [Compound I-39]
OUTPUT: 20 to 50 nM

INPUT: Write down IC50 measured for item Nc1ncnc2c1c(Sc1ccncc1)nn2[C@@H]1O[C@H](COS(N)(=O)=O)[C@@H](O)[C@H]1O [Compound I-66]
OUTPUT: 20 to 50 nM

INPUT: Write down IC50 measured for item Nc1ncnc2c1c(SCC(F)F)nn2[C@H]1C[C@H](O)[C@@H](COS(N)(=O)=O)O1 [Compound I-165]
OUTPUT: 50 to 100 nM

###

- target_under_test: recombinant human His-ATG7 enzyme (Homo sapiens (Human))
- assay_procedure: ATG7 Enzyme Assay (HTRF/FRET, ATG3-GST and Flag-Gabarap)
- Assay type: biochemical
- stated_conditions: Concentration 0.111 μM; read-out: Percent Inhibition
The entries below come with measured inhibition at 0.111 µM values attached.
Give the quantity in %, number only.

Here's what some known entries look like.
# substance_smiles, scale_unit, inhibition at 0.111 µM
records = [
    ("CC(C)(C)c1ccc(Sc2nn([C@H]3C[C@H](O)[C@@H](COS(N)(=O)=O)O3)c3ncnc(N)c23)cc1", "%", 58),
    ("Cc1ccc(Sc2nn([C@H]3C[C@H](O)[C@@H](COS(N)(=O)=O)O3)c3ncnc(N)c23)cc1C", "%", 65),
    ("CC(C)Oc1ccc(Sc2nn([C@H]3C[C@H](O)[C@@H](COS(N)(=O)=O)O3)c3ncnc(N)c23)cc1", "%", 64),
    ("COc1cccc(Sc2nn([C@H]3C[C@H](O)[C@@H](COS(N)(=O)=O)O3)c3ncnc(N)c23)c1", "%", 74),
]

# input for lookup
INPUT: GET inhibition at 0.111 µM | system: recombinant human His-ATG7 enzyme (Homo sapiens (Human)) | item: Nc1ncnc2c1c(SCc1ccccn1)nn2[C@@H]1O[C@H](COS(N)(=O)=O)[C@@H](O)[C@@H]1F
OUTPUT: 65
